src = patent US12162858B2

Listing of recorded IC50 by entry.
# target: Axl (Homo sapiens, UniProt P30530)
# Sequence (P30530 26-894): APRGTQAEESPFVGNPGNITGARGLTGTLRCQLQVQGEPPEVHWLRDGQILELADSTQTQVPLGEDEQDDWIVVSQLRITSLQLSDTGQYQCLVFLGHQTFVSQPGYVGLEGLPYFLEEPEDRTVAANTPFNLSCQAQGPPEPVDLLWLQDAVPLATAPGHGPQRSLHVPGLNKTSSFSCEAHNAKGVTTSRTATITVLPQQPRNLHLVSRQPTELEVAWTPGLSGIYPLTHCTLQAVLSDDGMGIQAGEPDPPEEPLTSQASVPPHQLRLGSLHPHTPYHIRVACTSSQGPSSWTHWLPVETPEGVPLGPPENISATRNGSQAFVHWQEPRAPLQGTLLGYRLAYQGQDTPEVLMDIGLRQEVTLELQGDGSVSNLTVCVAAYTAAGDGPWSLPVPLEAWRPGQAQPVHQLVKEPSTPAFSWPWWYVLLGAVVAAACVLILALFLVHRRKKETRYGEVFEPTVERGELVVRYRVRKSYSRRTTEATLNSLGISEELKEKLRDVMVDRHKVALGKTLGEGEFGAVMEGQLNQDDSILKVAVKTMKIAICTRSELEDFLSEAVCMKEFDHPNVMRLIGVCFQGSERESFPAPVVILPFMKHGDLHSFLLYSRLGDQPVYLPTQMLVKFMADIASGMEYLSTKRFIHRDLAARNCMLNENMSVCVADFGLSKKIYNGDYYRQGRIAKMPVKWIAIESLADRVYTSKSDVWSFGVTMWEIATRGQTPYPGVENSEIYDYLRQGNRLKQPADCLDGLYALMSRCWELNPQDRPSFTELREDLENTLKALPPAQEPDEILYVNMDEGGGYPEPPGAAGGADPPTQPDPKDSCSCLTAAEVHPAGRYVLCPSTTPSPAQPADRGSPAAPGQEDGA
# protocol_text: Cellular Axl inhibition ELISA (p-Axl, Gas6-induced) using H1299 cells
# Assay type: cell-based
# Parameters: especially H1299 cell endogenously expresses Axl; endogenous in cells; host or cells: H1299
# condition_set: read-out: Cellular Axl activity by H1299 Elisa (IC50)
# Protocol: Axl is expressed in several of malignant cancer cells; especially H1299 cell endogenously expresses Axl; and an increased phosphorylation of Axl (p-Axl) can be observed, when induced by the Axl ligand, Ga6. The H1299 cells should be 40-80% confluent in the cell culture flask. Then cells are washed with DPBS and trypsinized. […] Read absorbance at 450 nm within 30 min after adding STOP Solution. […]

[
  {
    "compound": "CCCn1cc(OCCOC)c(C(=O)Nc2ccc(Oc3ccnc4cc(OC)c(OC)cc34)cn2)n1 [Compound 105]",
    "IC50": "< 0.5 µM"
  },
  {
    "compound": "COc1cc2nccc(Oc3ccc(NC(=O)c4nn(CCOC5CCC5)cc4OCC(F)(F)F)nc3)c2cc1OC [Compound 65]",
    "IC50": "< 0.5 µM"
  },
  {
    "compound": "CCCn1cc(OCC2CCC2)c(C(=O)Nc2ccc(Oc3ccnc4cc(OC)c(OC(F)(F)F)cc34)cn2)n1 [Compound 167]",
    "IC50": "< 0.5 µM"
  },
  {
    "compound": "COc1cc2nccc(Oc3ccc(NC(=O)c4nn(C5CCNC5)cc4OCC(F)(F)F)cc3C)c2cc1OC (stereo not shown) [Compound 81]",
    "IC50": "≥ 1 µM"
  },
  {
    "compound": "COc1cc2nccc(Oc3ccc(NC(=O)c4nn(C5CC5)cc4OCCC(F)(F)F)nn3)c2cc1OC [Compound 173]",
    "IC50": "< 0.5 µM"
  },
  {
    "compound": "COc1cc2nccc(Oc3ccc(NC(=O)c4nn(C5CCCC5)cc4OCC(F)(F)F)cc3)c2cc1OC [Compound 60]",
    "IC50": "< 0.5 µM"
  },
  {
    "compound": "COc1cc2nccc(Oc3ccc(NC(=O)c4nn(CC5CCN(C)C5)cc4OCC(F)(F)F)nc3)c2cc1OC (stereo not shown) [Compound 169]",
    "IC50": "≥ 1 µM"
  }
]

###

Listing of recorded inhibition at 0.1 µM by entry.
# target: CSF1R (Homo sapiens, UniProt P07333)
# Sequence (P07333 20-972): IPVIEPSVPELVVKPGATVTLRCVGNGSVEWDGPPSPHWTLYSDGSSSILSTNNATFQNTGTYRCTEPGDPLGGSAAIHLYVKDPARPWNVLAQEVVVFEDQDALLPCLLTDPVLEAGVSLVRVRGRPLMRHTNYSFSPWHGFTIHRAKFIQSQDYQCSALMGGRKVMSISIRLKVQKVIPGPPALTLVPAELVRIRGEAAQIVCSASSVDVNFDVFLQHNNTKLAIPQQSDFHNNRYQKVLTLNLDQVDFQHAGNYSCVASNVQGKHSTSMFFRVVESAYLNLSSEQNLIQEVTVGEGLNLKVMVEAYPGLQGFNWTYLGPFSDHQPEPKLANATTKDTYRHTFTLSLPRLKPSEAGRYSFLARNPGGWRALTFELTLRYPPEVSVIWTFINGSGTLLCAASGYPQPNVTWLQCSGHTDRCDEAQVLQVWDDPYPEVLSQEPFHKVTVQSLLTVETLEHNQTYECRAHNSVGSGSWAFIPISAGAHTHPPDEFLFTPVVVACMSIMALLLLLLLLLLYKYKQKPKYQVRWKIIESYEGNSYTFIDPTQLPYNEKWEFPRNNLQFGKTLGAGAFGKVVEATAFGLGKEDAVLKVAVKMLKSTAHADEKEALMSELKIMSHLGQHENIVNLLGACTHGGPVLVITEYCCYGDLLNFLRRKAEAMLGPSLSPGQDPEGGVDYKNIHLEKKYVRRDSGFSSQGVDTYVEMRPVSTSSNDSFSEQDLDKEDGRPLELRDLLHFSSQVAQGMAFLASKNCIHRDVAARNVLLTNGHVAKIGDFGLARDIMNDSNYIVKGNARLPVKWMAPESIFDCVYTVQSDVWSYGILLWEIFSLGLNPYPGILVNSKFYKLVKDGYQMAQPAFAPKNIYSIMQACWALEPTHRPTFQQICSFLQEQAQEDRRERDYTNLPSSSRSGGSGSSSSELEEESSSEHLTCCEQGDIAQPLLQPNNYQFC
# protocol_text: KINOMEscan competition binding assay for CSF1R
# Design: DNA tag for qPCR (not a peptide); host or cells: E. coli/T7 phage or HEK-293
# condition_set: @ 0.1 uM; read-out: CSF1R kinase binding activity, Range

[
  {
    "compound": "COc1cc2nccc(Oc3ccc(NC(=O)c4nn(CCO)cc4OCC(F)(F)F)cc3F)c2cc1OC [Compound 51]",
    "inhibition at 0.1 µM": "≥ 80%"
  },
  {
    "compound": "COc1cc2nccc(Oc3ccc(NC(=O)c4nn(CC(C)C)cc4OCC(F)(F)F)nn3)c2cc1OC [Compound 124]",
    "inhibition at 0.1 µM": "≥ 80%"
  },
  {
    "compound": "COc1cc2nccc(Oc3ccc(NC(=O)c4nn(CCCN)cc4OCC(F)(F)F)nc3)c2cc1OC [Compound 68]",
    "inhibition at 0.1 µM": "≥ 80%"
  },
  {
    "compound": "CCCn1cc(OCCC(O)CO)c(C(=O)Nc2ccc(Oc3ccnc4cc(OC)c(OC)cc34)cn2)n1 (stereo not shown) [Compound 15]",
    "inhibition at 0.1 µM": "≥ 80%"
  },
  {
    "compound": "COc1cc2nccc(Oc3ccc(NC(=O)c4nn(CC(C)C)cc4OCC(F)(F)F)c(F)c3)c2cc1OC [Compound 48]",
    "inhibition at 0.1 µM": "≥ 80%"
  },
  {
    "compound": "COc1cc2nccc(Oc3ccc(NC(=O)c4nn(CC(C)O)cc4OCC(F)(F)F)cn3)c2cc1OC (stereo not shown) [Compound 136]",
    "inhibition at 0.1 µM": "< 50%"
  },
  {
    "compound": "COc1cc2nccc(Oc3ccc(NC(=O)c4nn(CC5COC5)cc4OCC(F)(F)F)cc3F)c2cc1OC [Compound 97]",
    "inhibition at 0.1 µM": "50 to 80%"
  }
]

###

# target: CSF1R (Homo sapiens, UniProt P07333)
# protocol_text: KINOMEscan competition binding assay for CSF1R
# Parameters: DNA tag for qPCR (not a peptide); host or cells: E. coli/T7 phage or HEK-293
# condition_set: @ 0.1 uM; read-out: CSF1R kinase binding activity, Percent (%) inhibition

[
  {
    "molecule": "COc1cc2nccc(Oc3ccc(NC(=O)c4nn(C5CCCC5)cc4OCC(F)(F)F)c(F)c3)c2cc1OC [Compound 47]",
    "target": "CSF1R (Homo sapiens, UniProt P07333)",
    "result_unit": "%",
    "inhibition at 0.1 µM": 91
  },
  {
    "molecule": "CCCn1cc(NCC(F)(F)F)c(C(=O)Nc2ccc(Oc3ccnc4cc(OC)c(OC)cc34)cn2)n1 [Compound 23]",
    "target": "CSF1R (Homo sapiens, UniProt P07333)",
    "result_unit": "%",
    "inhibition at 0.1 µM": 94
  },
  {
    "molecule": "CCCn1cc(OCC(F)(F)F)c(C(=O)Nc2ccc(Oc3ccnc4cc(OC)c(OC)cc34)cc2C)n1 [Compound 27]",
    "target": "CSF1R (Homo sapiens, UniProt P07333)",
    "result_unit": "%",
    "inhibition at 0.1 µM": 58
  },
  {
    "molecule": "COc1cc2nccc(Oc3ccc(NC(=O)c4nn(CC(C)O)cc4OCC(F)(F)F)cc3)c2cc1OC (stereo not drawn) [Compound 89]",
    "target": "CSF1R (Homo sapiens, UniProt P07333)",
    "result_unit": "%",
    "inhibition at 0.1 µM": 56
  },
  {
    "molecule": "COCCOc1cn(C2CC2)nc1C(=O)Nc1ccc(Oc2ccnc3cc(OC)c(OC)cc23)cn1 [Compound 107]",
    "target": "CSF1R (Homo sapiens, UniProt P07333)",
    "result_unit": "%",
    "inhibition at 0.1 µM": 90
  },
  {
    "molecule": "COc1cc2nccc(Oc3ccc(NC(=O)c4nn(C[C@@H](C)O)cc4OCC(F)(F)F)nc3)c2cc1OC [Compound 29]",
    "target": "CSF1R (Homo sapiens, UniProt P07333)",
    "result_unit": "%",
    "inhibition at 0.1 µM": 99
  },
  {
    "molecule": "CCCn1cc(OCC(F)(F)F)c(C(=O)Nc2ccc(Oc3ccnc4cc(OC)c(OC)cc34)c(C(F)(F)F)c2)n1 [Compound 114]",
    "target": "CSF1R (Homo sapiens, UniProt P07333)",
    "result_unit": "%",
    "inhibition at 0.1 µM": 27
  },
  {
    "molecule": "CCn1cc(OC(C)C)c(C(=O)Nc2ccc(Oc3ccnc4cc(OC)c(OC)cc34)cn2)n1 [Compound 6]",
    "target": "CSF1R (Homo sapiens, UniProt P07333)",
    "result_unit": "%",
    "inhibition at 0.1 µM": 97
  },
  {
    "molecule": "COc1cc2nccc(Oc3ccc(NC(=O)c4nn(CC(C)C)cc4OCC(F)(F)F)cn3)c2cc1OC [Compound 103]",
    "target": "CSF1R (Homo sapiens, UniProt P07333)",
    "result_unit": "%",
    "inhibition at 0.1 µM": 29
  },
  {
    "molecule": "COc1cc2nccc(Oc3ccc(NC(=O)c4nn(CC(C)C)cc4OCC(F)(F)F)cc3F)c2cc1OC [Compound 53]",
    "target": "CSF1R (Homo sapiens, UniProt P07333)",
    "result_unit": "%",
    "inhibition at 0.1 µM": 71
  },
  {
    "molecule": "COc1cc2nccc(Oc3ccc(NC(=O)c4nn(C[C@H](C)O)cc4OCC(F)(F)F)nc3)c2cc1OC [Compound 30]",
    "target": "CSF1R (Homo sapiens, UniProt P07333)",
    "result_unit": "%",
    "inhibition at 0.1 µM": 99
  },
  {
    "molecule": "COc1cc2nccc(Oc3ccc(NC(=O)c4nn(CCOC5CC5)cc4OCC(F)(F)F)nc3)c2cc1OC [Compound 153]",
    "target": "CSF1R (Homo sapiens, UniProt P07333)",
    "result_unit": "%",
    "inhibition at 0.1 µM": 95
  },
  {
    "molecule": "COc1cc2nccc(Oc3ccc(NC(=O)c4nn(CCO)cc4OCC(F)(F)F)nc3)c2cc1OC [Compound 67]",
    "target": "CSF1R (Homo sapiens, UniProt P07333)",
    "result_unit": "%",
    "inhibition at 0.1 µM": 96
  },
  {
    "molecule": "COc1cc2nccc(Oc3ccc(NC(=O)c4nn(C5CCCC5)cc4OCC(F)(F)F)nn3)c2cc1OC [Compound 121]",
    "target": "CSF1R (Homo sapiens, UniProt P07333)",
    "result_unit": "%",
    "inhibition at 0.1 µM": 98
  },
  {
    "molecule": "COc1cc2nccc(Oc3ccc(NC(=O)c4nn(C)cc4OCC(F)(F)F)cc3F)c2cc1OC [Compound 50]",
    "target": "CSF1R (Homo sapiens, UniProt P07333)",
    "result_unit": "%",
    "inhibition at 0.1 µM": 80
  }
]
